System: Escherichia coli TOP10;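 note: peptides expressed intracellularly from a pBAD plasmid library in pooled LB shake-flask culture, induced with 0.3% L-arabinose, DNA abundance read by NGS, three biological replicates, DESeq2 with apeglm shrinkage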
Experiment: shrunken log2 fold change of peptide-encoding DNA abundance (4.5 h post-induction vs induction); higher = less antimicrobial activity (less host growth inhibition)
Conditions: time post-induction: 4.5 h; library: site-saturation at positions 5, 18, 19, 20
Collected shrunken log2 fold change values appear next to each entry.

item.sequence: RRIRKRPPRLPRPRPRPIQFPRP
shrunken log2 fold change: 0.0779

item.sequence: RRIRFRPPRLPRPRPRPCGQPRP
shrunken log2 fold change: 0.151

item.sequence: RRIRQRPPRLPRPRPRPQTEPRP
shrunken log2 fold change: -0.128

item.sequence: RRIRWRPPRLPRPRPRPTMTPRP
shrunken log2 fold change: 0.328

item.sequence: RRIRPRPPRLPRPRPRPGVEPRP
shrunken log2 fold change: 0.249

item.sequence: RRIRGRPPRLPRPRPRPVKWPRP
shrunken log2 fold change: 0.47

item.sequence: RRIRARPPRLPRPRPRPMSKPRP
shrunken log2 fold change: 0.16

item.sequence: RRIRRRPPRLPRPRPRPMCGPRP
shrunken log2 fold change: -0.0233

item.sequence: RRIRSRPPRLPRPRPRPWDKPRP
shrunken log2 fold change: -0.252

item.sequence: RRIRSRPPRLPRPRPRPFVDPRP
shrunken log2 fold change: -0.228

item.sequence: RRIRIRPPRLPRPRPRPHSTPRP
shrunken log2 fold change: -0.428

item.sequence: RRIRPRPPRLPRPRPRPQQLPRP
shrunken log2 fold change: 0.0282

item.sequence: RRIRWRPPRLPRPRPRPSIYPRP
shrunken log2 fold change: -0.305

item.sequence: RRIRYRPPRLPRPRPRPGQMPRP
shrunken log2 fold change: -0.553

item.sequence: RRIRQRPPRLPRPRPRPWMDPRP
shrunken log2 fold change: -0.118

item.sequence: RRIRMRPPRLPRPRPRPCTMPRP
shrunken log2 fold change: -0.218

item.sequence: RRIRKRPPRLPRPRPRPFCLPRP
shrunken log2 fold change: -0.0107

item.sequence: RRIRYRPPRLPRPRPRPNDCPRP
shrunken log2 fold change: -1.04

item.sequence: RRIRIRPPRLPRPRPRPWRGPRP
shrunken log2 fold change: -0.129

item.sequence: RRIRFRPPRLPRPRPRPCPRPRP
shrunken log2 fold change: 0.0155

item.sequence: RRIRIRPPRLPRPRPRPSEVPRP
shrunken log2 fold change: 0.0174

item.sequence: RRIRKRPPRLPRPRPRPTMTPRP
shrunken log2 fold change: 0.608

item.sequence: RRIRARPPRLPRPRPRPNTEPRP
shrunken log2 fold change: 0.154

item.sequence: RRIRRRPPRLPRPRPRPWDFPRP
shrunken log2 fold change: 0.0406

item.sequence: RRIRTRPPRLPRPRPRPWSDPRP
shrunken log2 fold change: -0.0131

item.sequence: RRIRLRPPRLPRPRPRPLPMPRP
shrunken log2 fold change: 0.0573

item.sequence: RRIRRRPPRLPRPRPRPRRAPRP
shrunken log2 fold change: 0.655

item.sequence: RRIRQRPPRLPRPRPRPFCDPRP
shrunken log2 fold change: -0.259

item.sequence: RRIRKRPPRLPRPRPRPGYAPRP
shrunken log2 fold change: 0.223

item.sequence: RRIRLRPPRLPRPRPRPMMNPRP
shrunken log2 fold change: -0.18

item.sequence: RRIRVRPPRLPRPRPRPPPCPRP
shrunken log2 fold change: 0.358

item.sequence: RRIRYRPPRLPRPRPRPQLMPRP
shrunken log2 fold change: -0.509

item.sequence: RRIRERPPRLPRPRPRPTDVPRP
shrunken log2 fold change: -0.0755

item.sequence: RRIRLRPPRLPRPRPRPFEVPRP
shrunken log2 fold change: 0.0377

item.sequence: RRIRLRPPRLPRPRPRPEQQPRP
shrunken log2 fold change: 0.0529

item.sequence: RRIRLRPPRLPRPRPRPSFIPRP
shrunken log2 fold change: -0.578

item.sequence: RRIRPRPPRLPRPRPRPGHFPRP
shrunken log2 fold change: 0.0437

item.sequence: RRIRDRPPRLPRPRPRPCWPPRP
shrunken log2 fold change: 0.073

item.sequence: RRIRCRPPRLPRPRPRPQSHPRP
shrunken log2 fold change: -0.304

item.sequence: RRIRGRPPRLPRPRPRPRQEPRP
shrunken log2 fold change: 0.527

item.sequence: RRIRNRPPRLPRPRPRPQREPRP
shrunken log2 fold change: -0.00141

item.sequence: RRIRRRPPRLPRPRPRPHKFPRP
shrunken log2 fold change: -0.132

item.sequence: RRIRARPPRLPRPRPRPNEIPRP
shrunken log2 fold change: -0.179

item.sequence: RRIRPRPPRLPRPRPRPEQSPRP
shrunken log2 fold change: 0.289

item.sequence: RRIRQRPPRLPRPRPRPHCNPRP
shrunken log2 fold change: -0.11

item.sequence: RRIRERPPRLPRPRPRPDMDPRP
shrunken log2 fold change: 0.0527

item.sequence: RRIRSRPPRLPRPRPRPRMTPRP
shrunken log2 fold change: 0.251

item.sequence: RRIRFRPPRLPRPRPRPFSLPRP
shrunken log2 fold change: -0.375

item.sequence: RRIRKRPPRLPRPRPRPFRIPRP
shrunken log2 fold change: -0.0356

item.sequence: RRIRKRPPRLPRPRPRPIQAPRP
shrunken log2 fold change: -0.000921

item.sequence: RRIRDRPPRLPRPRPRPFFWPRP
shrunken log2 fold change: 0.504

item.sequence: RRIRRRPPRLPRPRPRPRVRPRP
shrunken log2 fold change: 0.649

item.sequence: RRIRIRPPRLPRPRPRPQVGPRP
shrunken log2 fold change: -0.094

item.sequence: RRIRDRPPRLPRPRPRPDVQPRP
shrunken log2 fold change: 0.0508

item.sequence: RRIRGRPPRLPRPRPRPSVHPRP
shrunken log2 fold change: -0.00458

item.sequence: RRIRIRPPRLPRPRPRPVWAPRP
shrunken log2 fold change: -0.0187

item.sequence: RRIRCRPPRLPRPRPRPRDKPRP
shrunken log2 fold change: 0.0174

item.sequence: RRIRARPPRLPRPRPRPKKQPRP
shrunken log2 fold change: 0.0491

item.sequence: RRIRYRPPRLPRPRPRPPWMPRP
shrunken log2 fold change: -0.0946

item.sequence: RRIRQRPPRLPRPRPRPKHVPRP
shrunken log2 fold change: -0.067

item.sequence: RRIRHRPPRLPRPRPRPIIIPRP
shrunken log2 fold change: -0.247

item.sequence: RRIRPRPPRLPRPRPRPLVNPRP
shrunken log2 fold change: -0.549

item.sequence: RRIRSRPPRLPRPRPRPQRGPRP
shrunken log2 fold change: 0.274
